Provide the reported pIC50 of each item.
Molecular target: Epidermal growth factor receptor [L858R,C797S] (Human, UniProt P00533, C797S/L858R)
Sequence (P00533 25-1210 C797S/L858R limits assumed): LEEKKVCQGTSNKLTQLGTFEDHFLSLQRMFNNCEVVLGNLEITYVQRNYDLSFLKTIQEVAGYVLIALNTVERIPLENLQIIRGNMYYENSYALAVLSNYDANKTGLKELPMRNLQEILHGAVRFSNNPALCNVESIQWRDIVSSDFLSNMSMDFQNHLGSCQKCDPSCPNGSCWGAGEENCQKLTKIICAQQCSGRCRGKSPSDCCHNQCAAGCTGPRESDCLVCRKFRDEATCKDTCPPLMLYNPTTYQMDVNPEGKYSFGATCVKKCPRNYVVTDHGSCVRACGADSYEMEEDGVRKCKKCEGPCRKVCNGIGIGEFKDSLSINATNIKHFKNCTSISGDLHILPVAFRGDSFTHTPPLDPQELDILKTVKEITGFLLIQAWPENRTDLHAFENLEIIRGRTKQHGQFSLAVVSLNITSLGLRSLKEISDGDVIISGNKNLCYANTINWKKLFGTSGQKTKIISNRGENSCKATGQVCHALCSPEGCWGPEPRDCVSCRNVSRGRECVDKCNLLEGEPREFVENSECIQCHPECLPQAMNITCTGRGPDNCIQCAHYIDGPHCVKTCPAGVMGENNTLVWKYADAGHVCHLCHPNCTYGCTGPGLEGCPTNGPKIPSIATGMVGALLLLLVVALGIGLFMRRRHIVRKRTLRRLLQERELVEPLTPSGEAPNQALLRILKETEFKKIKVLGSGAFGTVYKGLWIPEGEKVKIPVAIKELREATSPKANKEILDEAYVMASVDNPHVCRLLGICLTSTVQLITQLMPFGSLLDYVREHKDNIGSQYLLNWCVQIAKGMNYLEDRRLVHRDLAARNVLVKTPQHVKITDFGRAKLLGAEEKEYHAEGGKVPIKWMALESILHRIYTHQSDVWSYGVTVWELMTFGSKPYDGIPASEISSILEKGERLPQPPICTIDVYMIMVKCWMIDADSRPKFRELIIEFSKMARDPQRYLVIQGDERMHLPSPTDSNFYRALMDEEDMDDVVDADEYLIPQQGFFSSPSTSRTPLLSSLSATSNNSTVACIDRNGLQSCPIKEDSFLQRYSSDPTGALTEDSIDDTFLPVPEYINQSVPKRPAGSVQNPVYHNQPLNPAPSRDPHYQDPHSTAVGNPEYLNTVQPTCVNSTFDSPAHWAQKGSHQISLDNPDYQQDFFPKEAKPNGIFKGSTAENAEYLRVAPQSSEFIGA
Assay: Biochemical Assay
Experimental: Biochemical Assays for Inhibition of Wild-Type and Mutant EGFRs.The inhibitory activities against EGFR WT, EGFR Δ752-759 mutant, EGFR Δ746-750/T790M mutant, EGFR Δ746-750/C797S mutant, EGFR Δ746-750/T790M/C797S mutant. […] Briefly, specific kinase/substrate pairs along with required cofactors were prepared in reaction buffer; 20 mM Hepes pH 7.5, 10 mM MgCl2, 1 mM EGTA, 0.02% Brij35, 0.02 mg/ml BSA, 0.1 mM Na3VO4, 2 mM DTT, 1% DMSO. […]
Numbers only, as −log10 of the molar value.

{"mol": "CN1CCOCCN(c2ccc(F)c(Cl)c2)c2cc3c(n[nH]c3cn2)/C=C/c2cn(C)nc2C1=O", "readout": "pIC50", "endpoint_result": 7.30}

Field: pIC50. Fill in for each record below.
1. Cn1ncc2c1COCCOc1ccccc1/C=C/c1n[nH]c3cnc-2nc13
2. CCc1nn(C)c2c1/C=C/c1n[nH]c3cnc(cc13)-c1cc(F)ccc1OCCN(C)C2=O
3. Cn1ncc2c1COCCOc1ccccc1/C=C/c1n[nH]c3cnc-2cc13

[6.32, 6.98, 7.21]

###

Provide the reported pIC50 of each item.
Target: Epidermal growth factor receptor [L858R,T790M,C797S] (Homo sapiens, UniProt P00533, C797S/L858R/T790M)
Sequence (P00533 25-1210 T790M/C797S/L858R limits assumed): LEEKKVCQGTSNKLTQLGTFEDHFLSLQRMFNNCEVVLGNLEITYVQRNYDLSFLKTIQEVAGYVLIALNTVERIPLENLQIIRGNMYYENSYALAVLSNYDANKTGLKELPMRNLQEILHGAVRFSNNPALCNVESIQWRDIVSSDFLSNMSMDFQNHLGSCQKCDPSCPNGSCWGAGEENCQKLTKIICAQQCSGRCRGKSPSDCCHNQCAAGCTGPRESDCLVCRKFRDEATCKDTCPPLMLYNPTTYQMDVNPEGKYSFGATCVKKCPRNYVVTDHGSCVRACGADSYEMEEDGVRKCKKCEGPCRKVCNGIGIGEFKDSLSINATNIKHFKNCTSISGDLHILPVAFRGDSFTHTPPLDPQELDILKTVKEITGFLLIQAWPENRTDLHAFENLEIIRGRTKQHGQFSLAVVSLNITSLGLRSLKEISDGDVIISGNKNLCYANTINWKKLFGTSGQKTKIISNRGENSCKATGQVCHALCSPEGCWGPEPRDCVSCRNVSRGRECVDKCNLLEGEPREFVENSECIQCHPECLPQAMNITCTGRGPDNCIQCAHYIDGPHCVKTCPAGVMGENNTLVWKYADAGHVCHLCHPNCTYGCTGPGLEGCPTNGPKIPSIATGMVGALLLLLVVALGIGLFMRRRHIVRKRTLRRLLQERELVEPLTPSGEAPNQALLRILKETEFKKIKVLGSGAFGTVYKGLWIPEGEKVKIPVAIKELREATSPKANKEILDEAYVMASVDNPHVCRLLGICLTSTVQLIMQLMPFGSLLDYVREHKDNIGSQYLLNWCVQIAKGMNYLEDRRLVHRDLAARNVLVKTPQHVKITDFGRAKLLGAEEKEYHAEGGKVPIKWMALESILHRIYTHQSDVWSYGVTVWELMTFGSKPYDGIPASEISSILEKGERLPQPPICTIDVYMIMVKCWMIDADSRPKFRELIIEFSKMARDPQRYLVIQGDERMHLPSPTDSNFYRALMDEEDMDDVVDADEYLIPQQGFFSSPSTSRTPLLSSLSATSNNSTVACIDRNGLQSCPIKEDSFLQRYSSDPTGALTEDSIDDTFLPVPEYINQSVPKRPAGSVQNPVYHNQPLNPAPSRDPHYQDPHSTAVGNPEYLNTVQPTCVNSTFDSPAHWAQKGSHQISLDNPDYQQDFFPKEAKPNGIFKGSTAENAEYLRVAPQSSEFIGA
Assay: Biochemical Assay
One number for each entry, as −log10 of the molar value.

Give pIC50 for all compounds that follow.
1. CN1CCC(NC(=O)c2ccc3c(c2)OCCOCc2c(cnn2C)-c2cc4c(n[nH]c4cn2)/C=C/3)CC1 [US20240182487, Compound 85]
2. Cn1ncc2c1COCCOc1ccccc1/C=C/c1n[nH]c3cnc-2cc13 [US20240182487, Compound 63]
3. CCc1c2c(nn1C)C(=O)N(C)CCOc1c[nH]c(=O)cc1-c1cc3c(n[nH]c3cn1)/C=C/2 [US20240182487, Compound 38]

7.51
8.06
5.95

Give its pIC50 value. Item: CN1CCC(CNC(=O)c2ccc3c(c2)/C=C/c2n[nH]c4cnc(cc24)-c2cnn(C)c2COCCO3)CC1 [US20240182487, Compound 94]
8.00

###

Hi there, I'd appreciate the recorded pIC50 for every entry that follows.
Target: Epidermal growth factor receptor [L858R] (Homo sapiens, UniProt P00533, L858R)
Sequence (P00533 25-1210 L858R limits assumed): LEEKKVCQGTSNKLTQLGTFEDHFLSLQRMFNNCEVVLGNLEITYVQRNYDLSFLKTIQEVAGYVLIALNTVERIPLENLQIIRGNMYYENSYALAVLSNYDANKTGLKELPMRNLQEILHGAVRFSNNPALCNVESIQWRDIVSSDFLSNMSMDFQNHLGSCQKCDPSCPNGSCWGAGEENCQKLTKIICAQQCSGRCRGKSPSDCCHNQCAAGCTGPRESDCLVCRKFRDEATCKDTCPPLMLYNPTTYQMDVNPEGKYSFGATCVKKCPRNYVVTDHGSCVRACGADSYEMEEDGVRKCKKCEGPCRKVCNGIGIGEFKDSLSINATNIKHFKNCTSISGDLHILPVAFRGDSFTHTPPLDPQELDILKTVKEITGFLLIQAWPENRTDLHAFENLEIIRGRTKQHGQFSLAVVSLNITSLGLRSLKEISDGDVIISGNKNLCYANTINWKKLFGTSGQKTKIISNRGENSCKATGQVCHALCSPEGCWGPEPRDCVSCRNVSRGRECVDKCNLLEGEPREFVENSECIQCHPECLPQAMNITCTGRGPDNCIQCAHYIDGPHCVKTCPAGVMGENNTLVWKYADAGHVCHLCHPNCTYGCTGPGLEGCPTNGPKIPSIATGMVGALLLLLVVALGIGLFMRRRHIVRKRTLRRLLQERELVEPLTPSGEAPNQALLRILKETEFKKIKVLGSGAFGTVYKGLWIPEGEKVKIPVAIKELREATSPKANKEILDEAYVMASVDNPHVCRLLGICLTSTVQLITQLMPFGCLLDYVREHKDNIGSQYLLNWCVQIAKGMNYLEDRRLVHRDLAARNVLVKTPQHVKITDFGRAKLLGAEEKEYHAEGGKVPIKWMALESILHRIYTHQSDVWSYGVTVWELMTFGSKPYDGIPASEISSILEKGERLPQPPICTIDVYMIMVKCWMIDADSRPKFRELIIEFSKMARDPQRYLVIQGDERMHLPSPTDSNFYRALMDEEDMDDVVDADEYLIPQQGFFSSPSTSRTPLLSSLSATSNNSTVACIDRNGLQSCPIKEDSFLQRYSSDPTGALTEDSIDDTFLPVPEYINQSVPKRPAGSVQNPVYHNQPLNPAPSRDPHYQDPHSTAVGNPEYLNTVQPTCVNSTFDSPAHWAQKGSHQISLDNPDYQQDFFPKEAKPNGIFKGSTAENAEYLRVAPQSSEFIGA
Assay: Biochemical Assay
Give bare numbers, as −log10 of the molar value.

{"compound": "CN1CCC(CNC(=O)c2ccc3c(c2)/C=C/c2n[nH]c4cnc(cc24)-c2cnn(C)c2COCCO3)CC1 [US20240182487, Compound 94]", "experimental_target": "Epidermal growth factor receptor [L858R] (Homo sapiens, UniProt P00533, L858R)", "endpoint_result": 8.04}
{"compound": "Cn1ncc2c1COCCOc1ccccc1/C=C/c1n[nH]c3cnc-2cc13 [US20240182487, Compound 63]", "experimental_target": "Epidermal growth factor receptor [L858R] (Homo sapiens, UniProt P00533, L858R)", "endpoint_result": 7.30}
{"compound": "CN1CC(NC(=O)c2ccc3c(c2)OCCCOc2c(cnn2C)-c2cc4c(n[nH]c4cn2)/C=C/3)C1 [US20240182487, Compound 83]", "experimental_target": "Epidermal growth factor receptor [L858R] (Homo sapiens, UniProt P00533, L858R)", "endpoint_result": 8.22}
{"compound": "CN1CCC(NC(=O)c2ccc3c(c2)OCCCOc2c(cnn2C)-c2cc4c(n[nH]c4cn2)/C=C/3)CC1 [US20240182487, Compound 78]", "experimental_target": "Epidermal growth factor receptor [L858R] (Homo sapiens, UniProt P00533, L858R)", "endpoint_result": 8.54}
{"compound": "Cn1ncc2c1OCCCOc1cc(C(=O)O)ccc1/C=C/c1n[nH]c3cnc-2cc13 [US20240182487, Compound 73]", "experimental_target": "Epidermal growth factor receptor [L858R] (Homo sapiens, UniProt P00533, L858R)", "endpoint_result": 7.41}

Record pIC50 for all entries; do not skip any.
1. CC(C)NC(=O)c1ccc2c(c1)OCCCOc1c(cnn1C)-c1cc3c(n[nH]c3cn1)/C=C/2 [US20240182487, Compound 77]
2. Cn1ncc2c1OCCCOc1ccc(F)cc1/C=C/c1n[nH]c3cnc-2cc13 [US20240182487, Compound 100]

7.24
7.86
